Sequence of the target: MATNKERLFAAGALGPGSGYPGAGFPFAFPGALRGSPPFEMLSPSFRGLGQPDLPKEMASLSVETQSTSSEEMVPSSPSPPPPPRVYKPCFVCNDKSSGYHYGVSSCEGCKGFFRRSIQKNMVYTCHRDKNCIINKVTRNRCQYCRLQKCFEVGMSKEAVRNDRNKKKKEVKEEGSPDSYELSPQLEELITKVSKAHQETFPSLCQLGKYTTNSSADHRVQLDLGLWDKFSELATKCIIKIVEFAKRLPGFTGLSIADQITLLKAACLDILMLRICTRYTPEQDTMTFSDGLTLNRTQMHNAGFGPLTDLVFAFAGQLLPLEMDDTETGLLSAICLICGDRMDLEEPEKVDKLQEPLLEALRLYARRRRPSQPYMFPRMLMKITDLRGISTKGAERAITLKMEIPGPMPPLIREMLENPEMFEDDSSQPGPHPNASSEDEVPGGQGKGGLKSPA

smiles: C/C(=C\c1ccc(C(=O)O)cc1)c1cc2c(cc1C)C(C)(C)CCC2(C)C
Kd: 645 nM
